- assayTarget: HMGCR (TM1-8)-GFP (Cricetulus griseus)
- Sequence (P00347 1-346): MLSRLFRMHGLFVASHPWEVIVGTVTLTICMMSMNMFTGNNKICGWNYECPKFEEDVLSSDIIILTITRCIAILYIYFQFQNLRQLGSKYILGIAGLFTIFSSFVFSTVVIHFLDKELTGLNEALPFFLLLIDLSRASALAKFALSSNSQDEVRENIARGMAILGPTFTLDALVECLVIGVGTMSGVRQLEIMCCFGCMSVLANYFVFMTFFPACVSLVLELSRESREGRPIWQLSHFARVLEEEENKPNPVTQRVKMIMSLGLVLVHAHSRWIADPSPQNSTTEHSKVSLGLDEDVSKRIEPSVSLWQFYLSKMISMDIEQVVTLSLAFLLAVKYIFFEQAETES
Decide using DC50 alone. Strictly below 4 µM: Satisfied. Equal to or above 4 µM: Not satisfied.

- molecule: "C[C@H](CCCCO)C1CCC2C3C(CC[C@@]21C)[C@@]1(C)CC[C@H](O)C(C)(C)C1=C[C@@H]3O (stereo partly drawn)"
  assignedCategory: "Not satisfied"
- molecule: "CC(C)CCC[C@@H](C)[C@H]1CC[C@H]2[C@@H]3[C@@H](O)C=C4C(C)(C)[C@@H](O)CC[C@]4(C)[C@H]3CC[C@]12C [Compound 35, 4,4-Dimethyl 7β-hydroxyl cholesterol]"
  assignedCategory: "Satisfied"
- molecule: "CC(C)CCC[C@@H](C)[C@H]1CCC2C3C(CC[C@@]21C)[C@@]1(C)CC[C@H](O)C(C)(C)C1=C[C@H]3O (stereo partly drawn)"
  assignedCategory: "Not satisfied"
- molecule: "C[C@H](CCCC(=O)O)C1CCC2C3C(CC[C@@]21C)[C@@]1(C)CC[C@H](O)C(C)(C)C1=C[C@@H]3O (stereo partly drawn)"
  assignedCategory: "Not satisfied"
- molecule: "CC(O)CCCC[C@@H](C)C1CCC2C3C(CC[C@@]21C)[C@@]1(C)CC[C@H](O)C(C)(C)C1=C[C@@H]3O (stereo partly drawn)"
  assignedCategory: "Satisfied"
- molecule: "CC(O)CCC[C@@H](C)C1CCC2C3C(CC[C@@]21C)[C@@]1(C)CC[C@H](O)C(C)(C)C1=C[C@@H]3O (stereo partly drawn)"
  assignedCategory: "Satisfied"
